# STUDY_SYSTEM: UniProt Q00535
# Sequence (Q00535 whole entry): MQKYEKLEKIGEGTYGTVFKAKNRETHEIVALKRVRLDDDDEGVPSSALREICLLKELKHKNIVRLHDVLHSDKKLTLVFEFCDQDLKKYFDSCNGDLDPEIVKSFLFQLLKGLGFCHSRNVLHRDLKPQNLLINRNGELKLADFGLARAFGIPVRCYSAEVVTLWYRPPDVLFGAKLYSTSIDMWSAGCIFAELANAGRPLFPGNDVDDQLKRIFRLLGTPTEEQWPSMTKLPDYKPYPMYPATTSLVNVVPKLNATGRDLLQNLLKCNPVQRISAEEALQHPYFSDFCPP
# ASSAY_NAME: Competitive isoTOP-ABPP, cell lysates
# Format: binding
# ASSAY_CONDITIONS: 500 μm, in-vitro_ramos_231
QUANTITY_MEASURED: isoTOP-ABPP reactivity ratio, Q00535_C157
Answers are plain numbers.

Solved entries (count: 3):
{"SMILES_STRUCTURE": "Cc1ccc(C=C(C#N)C(=O)NCCN2CCOCC2)cc1", "ASSAY_RESULT": 1.5}
{"SMILES_STRUCTURE": "C=CC(=O)Nc1cc(F)c(N2CCN(C(=O)OC(C)(C)C)CC2)c(F)c1", "ASSAY_RESULT": 0.9}
{"SMILES_STRUCTURE": "CC(C)(C)c1cc(NC(=O)CCl)on1", "ASSAY_RESULT": 1.7}

// moving on: another record for isoTOP-ABPP reactivity ratio, Q00535_C157
The recorded isoTOP-ABPP reactivity ratio, Q00535_C157 with UniProt Q00535 for O=C(CCl)N(Cc1ccc(F)cc1)C12CC3CC(CC(C3)C1)C2 was 0.7
